Where do the numbers come from? From paper PMC9267968.

target: hCA XII (Homo sapiens, UniProt O43570); construct: made in house; test: biochemical; details: 6 h incubation of enzyme and inhibitor; mean from 3 different assays, errors 5-10%; read-out: KI (nM) CA XII
Sequence (O43570 25-354): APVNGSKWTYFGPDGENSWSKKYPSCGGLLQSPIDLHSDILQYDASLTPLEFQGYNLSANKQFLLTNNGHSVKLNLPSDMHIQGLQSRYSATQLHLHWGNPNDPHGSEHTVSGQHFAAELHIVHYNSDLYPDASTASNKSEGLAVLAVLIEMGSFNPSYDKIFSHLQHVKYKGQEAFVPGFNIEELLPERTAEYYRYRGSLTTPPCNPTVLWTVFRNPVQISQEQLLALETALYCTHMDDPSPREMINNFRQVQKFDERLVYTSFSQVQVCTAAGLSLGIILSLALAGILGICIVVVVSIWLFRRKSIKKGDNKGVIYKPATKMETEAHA
Cut-off 60 nM on Ki: below means criterion met, at or above means criterion not met.

>>> print(df.to_string())
                                    molecule     category_label
 0  O=[N+]([O-])c1ccc(COc2ccc3c(c2)OS(=O)(=O)C=C3)cc1 [Compound 16]  criterion not met
 1  CC1=CS(=O)(=O)Oc2cc(OCc3ccccc3)ccc21 [Compound 18]      criterion met
 2  COc1ccc2c(c1)OS(=O)(=O)C=C2C [Compound 10]  criterion not met
 3    O=S1(=O)C=Cc2ccc(O)cc2O1 [Compound 11]      criterion met
 4  CC1=CS(=O)(=O)Oc2cc(O)ccc21 [Compound 12]      criterion met
 5  O=S1(=O)C=Cc2ccc(OCc3ccccc3)cc2O1 [Compound 13]      criterion met
 6  CC1=CS(=O)(=O)Oc2cc(OCc3ccc(F)cc3)ccc21 [Compound 19]      criterion met
 7  O=S1(=O)Oc2cc(OCc3ccccc3)ccc2-c2ccccc21 [Compound 27]  criterion not met
 8  O=S1(=O)C=Cc2ccc(OCc3ccc(F)cc3)cc2O1 [Compound 14]      criterion met
 9  CC1=CS(=O)(=O)Oc2cc(OCc3cccc(F)c3)ccc21 [Compound 20]      criterion met
10  O=S1(=O)C=Cc2ccc(OCc3cccc(F)c3)cc2O1 [Compound 15]      criterion met
11  O=S1(=O)Oc2cc(O)ccc2-c2ccccc21 [Compound 26]  criterion not met
12  O=S1(=O)Oc2cc(OCc3cccc(F)c3)ccc2-c2ccccc21 [Compound 29]  criterion not met
13  O=[N+]([O-])c1cccc(COc2ccc3c(c2)OS(=O)(=O)C=C3)c1 [Compound 17]  criterion not met
14  O=S1(=O)Oc2cc(OCc3ccc(F)cc3)ccc2-c2ccccc21 [Compound 28]  criterion not met
